System: Colletotrichum lindemuthianum
protocol summary: B-8. Colletotrichum lindemuthianum in vitro cell test
Assay type: cell-based
condition parameters: 144 h, 20 ppm of active ingredient, 6 days incubation, liquid culture, absorbance, read-out: efficacy (inhibition of fungal growth)
Listed below: inhibition at 20 ppm values for each entry.

| compound | test system | inhibition at 20 ppm |
| --- | --- | --- |
| Cc1ccc(C(F)(F)CNC(=O)c2c(Oc3cccc(C4CC4)c3)nnc3ccccc23)c(C)c1 [I-218] | Colletotrichum lindemuthianum | 90 to 100% |
| O=C(NCC(F)c1ccc(Cl)cc1Cl)c1c(Oc2cccc(C3CC3)c2)nnc2c1CCCC2 (stereo not shown) [I-119] | Colletotrichum lindemuthianum | 90 to 100% |
| Cc1ccc(C(F)(F)CNC(=O)c2c(Oc3cccc(Br)c3)cnc3nccnc23)c(C)c1 [I-241] | Colletotrichum lindemuthianum | 90 to 100% |
| O=C(N[C@H]1CCOc2cc(F)ccc21)c1c(Oc2cccc(C(F)(F)F)c2)nnc2ccccc12 [I-178] | Colletotrichum lindemuthianum | 90 to 100% |

// data source = patent US20230192617A1
